Listed next: entries and their corresponding EC50.
tested on: CCRF-CEM; assay: cells; conditions: Homo sapiens, 144 h, read-out: Anticancer profileration EC50 CCRF-CEM
Structures can show the parent of a compound that is named as a salt.
Measurement Label: EC50 (nM)

O=C(NO)c1ccc(CCCN2CCC(CNC3CC3c3ccc(OCc4ccc(F)cc4)cc3)CC2)cc1 (stereo not drawn) [Example 52, TFA Salt] : 371
O=C(NO)c1ccc(CCCN2CCC(CNC3CC3c3ccccc3)CC2)cc1 (stereo not drawn) [Example 43, TFA Salt] : 493
O=C(NO)c1cnc(N2CCC(NC3CC3c3ccc(OCc4ccc(F)cc4)cc3)CC2)nc1 (stereo not drawn) [Example 12, TFA Salt] : 375
O=C(/C=C/c1ccc(CNC2CC2c2ccc(-c3ccc(Cl)cc3)cc2)cc1)NO (stereo not drawn) [Example 5, TFA Salt] : 533
O=C(NO)c1ccc(CCCN2CCC(CNC3CC3c3ccc(F)cc3)CC2)cc1 (stereo not drawn) [Example 47, TFA Salt] : 1400
O=C(NO)c1cnc(N2CCC(CNC3CC3c3ccc(F)cc3)CC2)nc1 (stereo not drawn) [Example 8, TFA Salt] : 119

----------
experiment: Metabolic stability in liver microsomes, HLM; conditions: 1 μM, NADPH
Structures can show the parent of a compound that is named as a salt.
Measurement Label: Metabolic stability HLM % remaining in 30 min (%)

O=C(NO)c1ccc2c(c1)CN(C(=O)CCCNC1CC1c1ccc(F)cc1)CC2 (stereo not shown) [Example 107, TFA Salt] : 83
O=C(NO)c1ccc(CC(=O)N2CCC(CN[C@H]3C[C@@H]3c3ccccc3)CC2)cc1 [Example 84B, TFA Salt] : 75
O=C(NO)c1csc(CCCN2CCC(CNC3CC3c3ccccc3)CC2)n1.O=C(O)C(F)(F)F (stereo not shown) : 88
O=C(NO)c1coc(CCCN2CCC(CNC3CC3c3ccccc3)CC2)n1.O=C(O)C(F)(F)F (stereo not shown) : 78

----------
test: Metabolic stability in liver microsomes, HLM; details: 1 μM, NADPH
Structures can show the parent of a compound that is named as a salt.
Label key: rule met means Metabolic stability HLM % remaining in 30 min under 80%; rule not met means Metabolic stability HLM % remaining in 30 min of 80% or more.

O=C(NO)c1ccc(CCC(=O)N2CCC(NC3CC3c3ccccc3)CC2)cc1 (stereo not drawn) [Example 83, TFA Salt] : rule met
O=C(NO)c1cccc(CNC2CC2c2ccc(Br)cc2)c1 (stereo not drawn) [Example 26, TFA Salt] : rule met
N#Cc1ccc(-c2ccc(C3CC3NCC3CCN(CCCc4ccc(C(=O)NO)cc4)CC3)cc2)cc1 (stereo not drawn) [Example 59, TFA Salt] : rule met
O=C(NO)c1ccc(CCCN2CCC(CNC3CC3c3ccc(F)c(F)c3)CC2)cc1 (stereo not drawn) [Example 50, TFA Salt] : rule not met
Nc1ccccc1NC(=O)c1ccc(CCCn2cnc(CNC3CC3c3ccc(F)c(F)c3)c2)cc1 (stereo not drawn) [Example 135, TFA Salt] : rule met
O=C(NO)c1cnc(N2CCC(CNC3CC3c3ccc(-c4ccc(Cl)cc4)cc3)CC2)nc1 (stereo not drawn) [Example 14, TFA Salt] : rule not met
O=C(NO)c1ccc(CCCN2CCC(CNC3CC3c3ccc(C(=O)N4CCOCC4)cc3)CC2)cc1 (stereo not drawn) [Example 53, TFA Salt] : rule not met
Nc1ccccc1NC(=O)c1ccc(/C=C/C(=O)N2CCC(CNC3CC3c3ccc(F)cc3)CC2)cc1 (stereo not drawn) [Example 156, TFA Salt] : rule met
O=C(NO)c1ccc(OCCNC2CC2c2ccccc2)cc1 (stereo not drawn) [Example 95, TFA Salt] : rule met
Cn1cc(-c2ccc(C3CC3NCC3CCN(Cc4ccc(C(=O)Nc5ccccc5N)cc4)CC3)cc2)ccc1=O (stereo not drawn) [Example 141, TFA Salt] : rule not met
Cn1cc(-c2ccc(C3CC3NCC3CCN(CCCc4ccc(C(=O)NO)cc4)CC3)cc2)cn1 (stereo not drawn) [Example 62, TFA Salt] : rule met
Nc1ccccc1NC(=O)/C=C/c1ccc(CNC2CC2c2ccc(F)cc2)cc1 (stereo not drawn) [Example 120, TFA Salt] : rule met
Cc1noc(C)c1-c1ccc(C2CC2NCC2CCN(Cc3ccc(C(=O)NO)cc3)CC2)cc1 (stereo not drawn) [Example 37, TFA salt] : rule not met
Nc1ccccc1NC(=O)c1ccc(CCCN2CCC(CNC3CC3c3ccc(C(=O)N4CCCCC4)cc3)CC2)cc1 (stereo not drawn) [Example 125, TFA Salt] : rule met
O=C(NO)c1cnc(N2CCC(NC3CC3c3ccc(-c4ccc(Cl)cc4)cc3)CC2)nc1 (stereo not drawn) [Example 13, TFA Salt] : rule met
O=C(NO)c1ccc(OCCCN2CCC(CNC3CC3c3ccccc3)CC2)cc1 (stereo not drawn) [Example 100, TFA Salt] : rule met
O=C(NO)c1ccc(CCCN2CCC(CNC3CC3c3ccc(-c4ccc(F)cc4)cc3)CC2)cc1 (stereo not drawn) [Example 57, TFA Salt] : rule not met
O=C(/C=C/c1ccc(CNC2CC2c2ccc(-c3cncnc3)cc2)cc1)NO (stereo not drawn) [Example 7, TFA Salt] : rule met
O=C(/C=C/c1ccc(CNC2CC2c2ccc(-c3ccc(Cl)cc3)cc2)cc1)NO (stereo not drawn) [Example 5, TFA Salt] : rule not met
O=C(NO)c1ccc2c(c1)CN(C(=O)CCCNC1CC1c1ccc(F)cc1)C2 (stereo not drawn) [Example 108, TFA Salt] : rule not met
Cc1noc(C)c1-c1ccc(C2CC2NCC2CCN(C(=O)/C=C/c3ccc(C(=O)NO)cc3)CC2)cc1 (stereo not drawn) [Example 116, TFA Salt] : rule met
O=C(NO)c1ccc(OCCCNC2CC2c2ccccc2)cc1 (stereo not drawn) [Example 101, TFA Salt] : rule met
O=C(NO)c1cnc(N2CCC(CN[C@H]3C[C@@H]3c3ccc(F)cc3)CC2)nc1 [Example 21, TFA Salt] : rule not met
O=C(/C=C/c1ccc(CNC2CC2c2ccc(C3CC3)cc2)cc1)NO (stereo not drawn) [Example 1] : rule met

----------
Listing: IC50 of selected molecules
molecular target: HDAC6 human recombinant enzyme (Homo sapiens (Human)); test: Histone Deacetylase Assay (BPS Biosciences), HDAC6
Counter-ions that a name gives are not always drawn.
Measurement Label: IC50 (nM)

O=C(NO)c1ccc2c(c1)CN(C(=O)CN[C@H]1C[C@@H]1c1ccc(F)cc1)CC2 [Example 104A, TFA Salt] : 53
O=C(NO)c1ccc(CCCN2CCC(CNC3CC3c3ccc(F)cc3)CC2)cc1 (stereo not shown) [Example 47, TFA Salt] : 51
O=C(NO)c1ccc(CCCN2CCC(NC3CC3c3ccccc3)CC2)cc1 (stereo not shown) [Example 44, TFA Salt] : 65
O=C(NO)c1ccc(/C=C/C(=O)N2CCC(CNC3CC3c3ccc(-c4cncnc4)cc3)CC2)cc1 (stereo not shown) [Example 117, TFA Salt] : 74
O=C(NO)c1cnc(N2CCC(CN[C@@H]3C[C@H]3c3ccc(F)cc3)CC2)nc1 [Example 20, TFA Salt] : 72
O=C(NO)c1ccc(CCCN2CCC(CNC3CC3c3ccc(-c4ccc(Cl)cc4)cc3)CC2)cc1 (stereo not shown) [Example 56, TFA Salt] : 19
O=C(NO)c1ccc(CN2CCn3cc(CNC4CC4c4ccc(F)cc4)nc3C2)cc1 (stereo not shown) [Example 80, TFA Salt] : 68
O=C(NO)c1cnc(N2CCC(CN[C@H]3C[C@@H]3c3ccc(F)cc3)CC2)nc1 [Example 21, TFA Salt] : 91
O=C(NO)c1cnc(NCCN2CCC(CNC3CC3c3ccc(F)cc3)CC2)nc1 (stereo not shown) [Example 102, TFA Salt] : 75
O=C(NO)c1ccc2c(c1)CN(C(=O)CN[C@@H]1C[C@H]1c1ccc(F)cc1)CC2 [Example 104B, TFA Salt] : 45

----------
IC50 values by entry
molecular target: HDAC6 human recombinant enzyme (Homo sapiens (Human), UniProt Q9UBN7); assay: Histone Deacetylase Assay (BPS Biosciences), HDAC6
Sequence (Q9UBN7 whole entry): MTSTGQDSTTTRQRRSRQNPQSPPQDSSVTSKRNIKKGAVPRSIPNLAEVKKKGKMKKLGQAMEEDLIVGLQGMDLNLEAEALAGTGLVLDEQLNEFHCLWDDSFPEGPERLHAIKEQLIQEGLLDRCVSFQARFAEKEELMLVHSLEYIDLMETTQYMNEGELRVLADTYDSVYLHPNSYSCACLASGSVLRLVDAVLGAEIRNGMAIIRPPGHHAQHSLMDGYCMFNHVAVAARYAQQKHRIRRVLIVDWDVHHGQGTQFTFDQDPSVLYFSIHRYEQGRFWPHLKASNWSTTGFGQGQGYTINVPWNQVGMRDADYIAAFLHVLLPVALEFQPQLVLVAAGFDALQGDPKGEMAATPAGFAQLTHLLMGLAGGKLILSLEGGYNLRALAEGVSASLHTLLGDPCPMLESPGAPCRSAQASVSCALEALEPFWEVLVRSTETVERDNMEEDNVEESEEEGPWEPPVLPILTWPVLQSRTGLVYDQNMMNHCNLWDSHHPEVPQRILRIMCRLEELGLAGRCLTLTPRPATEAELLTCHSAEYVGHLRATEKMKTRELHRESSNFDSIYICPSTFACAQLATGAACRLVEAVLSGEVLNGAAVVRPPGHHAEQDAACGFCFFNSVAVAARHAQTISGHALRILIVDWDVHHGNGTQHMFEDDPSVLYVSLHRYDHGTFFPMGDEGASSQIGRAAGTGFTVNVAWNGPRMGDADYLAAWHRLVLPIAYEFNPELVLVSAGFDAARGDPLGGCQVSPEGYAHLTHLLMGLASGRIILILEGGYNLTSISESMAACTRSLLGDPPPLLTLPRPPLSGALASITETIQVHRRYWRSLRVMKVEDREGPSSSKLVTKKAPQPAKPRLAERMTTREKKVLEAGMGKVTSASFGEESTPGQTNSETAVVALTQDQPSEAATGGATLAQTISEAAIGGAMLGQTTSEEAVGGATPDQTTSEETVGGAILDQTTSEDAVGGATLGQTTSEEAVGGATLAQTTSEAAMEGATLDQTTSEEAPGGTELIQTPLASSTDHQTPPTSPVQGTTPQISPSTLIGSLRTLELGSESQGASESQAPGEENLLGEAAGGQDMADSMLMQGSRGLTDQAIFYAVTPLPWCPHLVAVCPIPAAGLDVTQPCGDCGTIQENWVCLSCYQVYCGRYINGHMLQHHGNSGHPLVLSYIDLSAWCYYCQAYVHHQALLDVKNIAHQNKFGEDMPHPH
Structures can show the parent of a compound that is named as a salt.
Measurement Label: IC50 (nM)

O=C(NO)c1cc2c(s1)CCN(C(=O)CN[C@H]1C[C@@H]1c1ccc(F)cc1)C2 [Example 103B, TFA Salt] : 36
Cn1cc(-c2ccc(C3CC3NCC3CCN(Cc4ccc(C(=O)NO)cc4)CC3)cc2)ccc1=O (stereo not shown) [Example 35, TFA Salt] : 199
O=C(NO)c1ccc(CCCn2cnc(CNC3CC3c3ccccc3)c2)cc1 (stereo not shown) [Example 75, TFA Salt] : 365
O=C(NO)c1ccc(CCCN2CCC(CNC3CC3c3ccc(-c4ccc(C(F)(F)F)nc4)cc3)CC2)cc1 (stereo not shown) [Example 66, TFA Salt] : 100
O=C(NO)c1ccc(CCCN2CC3(CC(NC4CC4c4ccccc4)C3)C2)cc1 (stereo not shown) [Example 46, TFA Salt] : 477
O=C(NO)c1ccc(CCCN2CC(CNC3CC3c3ccc(F)cc3)C2)cc1 (stereo not shown) [Example 48, TFA Salt] : 184
